Tested on: NCI-H226
Experiment: NCI tumour cell line growth inhibition, 48 h
The source made the active and inactive calls. Cut-off read from the data, not from the text of the source: active = GI50 up to about 1.1 µM and inactive = higher. Non-standard residues stand in square brackets, D forms with d. Residues, ends and D or L forms follow the SMILES beside them. *: point of attachment. Phe(4-NO2) = N[CH](Cc1ccc([N+](=O)[O-])cc1)C(=O)O; Boc = CC(C)(C)OC(=O)*
property name: GI50

Prompt: Lab note: need GI50 for COC(=O)CCC(NC(=O)OC(C)(C)C)C(=O)NC(Cc1ccc([N+](=O)[O-])cc1)C(=O)NC(CCC(=O)OC)C(=O)OC (stereo unspecified) (Boc-Glu(OMe)-[Phe(4-NO2)]-Glu(OMe)-OMe; configuration not given here) on NCI-H226, anyone have it?
Completion: 74.8 µM (inactive)

Prompt: Form field - read-out: GI50; system: NCI-H226; submitted item: CC12C/C(=C\c3ccccc3)C(=O)C3C1CCCC32
Completion: > 100 µM (inactive)

Prompt: Given the entry O=C1CC23CCCCCCCCCCC2(C1)CC(=O)C3 (stereo unspecified) , what GI50 was observed with NCI-H226?
Completion: 26.5 µM (inactive)

Prompt: Value wanted: GI50 (NCI-H226) of entry O=C(CCc1n[nH]c(=S)o1)Nc1cc(Cl)c(Cl)cc1Cl
Completion: 66.4 µM (inactive)

Prompt: Record lookup: for NCI-H226, what GI50 belongs to O=C(Nc1ccccc1)N(CCCCN(Cc1ccccc1)C(=O)Nc1ccccc1)Cc1ccccc1 ?
Completion: > 100 µM (inactive)

Prompt: Recorded GI50 for COc1ccc(-c2cc(=O)c3ccc(O)cc3o2)cc1OC with NCI-H226, please?
Completion: > 100 µM (inactive)

Prompt: Param readout = GI50; param system = NCI-H226; param query = Br[C@@H]1[C@H]2c3nc4ccccc4nc3[C@@H]1C[C@H]2Br ; response: value
Completion: 31.3 µM (inactive)

Prompt: For the record CC1C2(C)OC(=N)C(C#N)(C(C)O2)C1(C#N)C#N (stereo unspecified) , what value of GI50 is listed for NCI-H226?
Completion: > 100 µM (inactive)

Prompt: Return GI50 measured with NCI-H226 given this compound: COC(=O)/C(=N\NC(=S)NN)C(C(=O)OC)C(=O)C(=O)Nc1cccc(C(F)(F)F)c1 (stereo unspecified)
Completion: > 100 µM (inactive)

Prompt: Return GI50 measured with NCI-H226 given this compound: C(=N\c1nc2cc3sc(/N=C/c4ccccc4)nc3cc2s1)/c1ccccc1
Completion: 20.7 µM (inactive)

Prompt: Give GI50 (NCI-H226) of the following compound: N#Cc1sc2nc3ccccc3n2c1N
Completion: 95.9 µM (inactive)

Prompt: # get_value(readout= GI50, system= NCI-H226) for CC(=O)Nc1ccc(N2C(=O)/C(=C\c3cccc(Oc4ccccc4)c3)S(=O)(=O)C2c2ccccc2)cc1 (stereo unspecified)
Completion: 66.2 µM (inactive)

Prompt: Reported GI50 for NCI-H226, given CC(=O)OC1c2ccccc2CCCCCCC12OCCO2 (stereo unspecified) ?
Completion: > 100 µM (inactive)

Prompt: Requested read-out GI50, target or system NCI-H226, entry NC(=O)CCSC(CC(=O)c1ccc(Cl)cc1)c1ccc(Cl)cc1 (stereo unspecified)
Completion: 36 µM (inactive)

Prompt: Give the reported GI50 for Oc1ccc2c3c1OC1c4[nH]ncc4C[C@H]4[C@@H](C2)N(CC2CC2)CC[C@]314 (stereo partly specified) (system: NCI-H226).
Completion: > 100 µM (inactive)

Prompt: Which GI50 is reported with NCI-H226 for this entry: Nc1c(S(N)(=O)=O)cc(S(N)(=O)=O)cc1S(N)(=O)=O ?
Completion: > 100 µM (inactive)

Prompt: Hello, I am looking for reported GI50 with NCI-H226 for c1ccc(-c2nc(-c3ccccc3)c(-c3ccccc3)[nH]2)cc1 . Could you help?
Completion: > 100 µM (inactive)

Prompt: What reported GI50 corresponds to CCCCCCCCCCCCOC(=S)NC on NCI-H226?
Completion: 4.25 µM (inactive)

Prompt: Could you share what GI50 was measured for O=C1NCCS(=O)(=O)N2CCC[C@@H]12 , tested on NCI-H226?
Completion: 60.3 µM (inactive)

Prompt: Tell me reported GI50 for Cc1ccc(S(N)(=O)=O)cc1 [P-TOLUENESULFONAMIDE] , tested with NCI-H226.
Completion: > 1000 µM (inactive)

Prompt: Lab note: need GI50 with NCI-H226 for entry CCN(CC)CCNc1c(OC)cc(C)c2sc3ccccc3c(=O)c12 , please look it up.
Completion: 3.4 µM (inactive)

###

Please provide measured GI50 for the entries that follow.
Tested on: SF-295
Test: NCI tumour cell line growth inhibition, 48 h
Active and inactive are the calls of the source. Cut-off read from the data, not from the text of the source: active = GI50 up to about 1.1 µM and inactive = higher.

Prompt: Look up GI50: O=C1NCCCc2nonc21
Completion: > 100 µM (inactive)

Prompt: Field request: GI50 | item: CCCCCCCCCCCCCCCCOP(=O)(O)Oc1ccc(/C=C\c2ccc(OP(=O)(O)OCCCCCCCCCCCCCCCC)cc2)cc1
Completion: 29.6 µM (inactive)

Prompt: # GI50 lookup, item O=C(CC1(O)C(=O)Nc2c(Cl)cc(Cl)cc21)c1cccc2ccccc12 (stereo not drawn)
Completion: 15.7 µM (inactive)

Prompt: Which GI50 value belongs to c1nnc(NCNc2nncs2)s1 ?
Completion: 28.1 µM (inactive)

Prompt: Return reported GI50; argument: Cn1c(=O)c2c(nc3sc4nc5ccccc5nc4n32)n(C)c1=O
Completion: 49.5 µM (inactive)

Prompt: Can you look up the measured GI50 of CSc1ncnc2c1CCN2 for me?
Completion: 6.81 µM (inactive)

Prompt: Could you share which GI50 value was measured for COc1cc(C2c3cc4c(cc3[C@@H](NCCN3CCCCC3)C3COC(=O)[C@H]23)OCO4)cc(OC)c1O (stereo partly drawn) ?
Completion: 0.0986 µM (active)

Prompt: If you can, please state the reported GI50 value of Cc1cn(C2CC(O)C(COP(=O)(O)OC3CC(n4c[n+]([BH2-]C#N)c5c(=O)[nH]c(N)nc54)OC3CO)O2)c(=O)[nH]c1=O (stereo not drawn) .
Completion: > 100 µM (inactive)

Prompt: May I ask what GI50 has been recorded for O=C(Cc1csc(N/N=C2\C(=O)Nc3ccccc32)n1)Nc1ccccc1 ?
Completion: 28.9 µM (inactive)

Prompt: Which GI50 value belongs to COc1ccccc1NC(=O)/C(Cc1nc2ccc([N+](=O)[O-])cc2nc1O)=N\NC(=O)C[N+](C)(C)C ?
Completion: 55.7 µM (inactive)

Prompt: // returns reported GI50 for input CC(C)CC(C#CCCOC(=O)c1ccccc1)OC(=O)c1ccccc1 (stereo not drawn)
Completion: > 10 µM (inactive)

Prompt: Query: GI50; subject: Cc1cc2nc(N3C(=O)/C(=C/Cc4ccco4)N=C3c3ccccc3)sc2cc1C
Completion: 43.8 µM (inactive)

Prompt: Data request, read-out GI50, for COc1cc(Nc2nc3cc(C(F)(F)F)ccc3nc2-c2ccccc2)cc(OC)c1OC
Completion: 54.6 µM (inactive)

Prompt: Which GI50 reading was recorded for the molecule CN(C)Cc1cc(/C=C/C(=O)c2ccc(Br)cc2)cc(CN(C)C)c1O ?
Completion: 21.8 µM (inactive)

Prompt: For the molecule shown here, Cn1ccc2c(c1=O)C(=O)OC2(C)C , give the reported GI50.
Completion: > 100 µM (inactive)

Prompt: Tell me the measured GI50 of Cc1c(O)nc(/C=C/C(=O)O)nc1C(=O)O , please.
Completion: > 100 µM (inactive)

Prompt: Quick one: GI50 for CCOC(=O)C1Sc2ccccc2N=C1C (stereo not drawn) ?
Completion: > 100 µM (inactive)

Prompt: For the molecule COc1ccc(N2C(=O)c3cc([N+](=O)[O-])cnc3S2(=O)=O)cc1 , what GI50 is on record?
Completion: > 100 µM (inactive)

Prompt: What value of GI50 has been recorded for this entry: CC1=C2C(=CO[C@H](C)[C@H]2C)C(O)=C(C(=O)O)C1=O
Completion: 35.8 µM (inactive)

Prompt: Which GI50 is reported for this molecule? CN(CCSCCN(C)C(=O)OC(C)(C)C)C(=O)OC(C)(C)C
Completion: > 100 µM (inactive)

Prompt: Which GI50 value is on record for CSc1nc(=O)c(C#N)c(-c2ccccc2)n1C1OC(COC(C)=O)C(OC(C)=O)C(OC(C)=O)C1OC(C)=O (stereo not drawn) ?
Completion: > 100 µM (inactive)

Prompt: # query: GI50 of entry Cc1nc2c(o1)/C(=N\c1ccccc1)c1nc(C)oc1/C2=N/c1ccccc1
Completion: 23.4 µM (inactive)

Prompt: Please give the measured GI50 for this molecule: CN1CCCN2CCN(C)CCN(CC1)CC2
Completion: > 100 µM (inactive)

Prompt: Would you kindly share the measured GI50 for Cn1c(-c2cccs2)cc(-c2cccs2)c1-c1ccsc1 ?
Completion: > 100 µM (inactive)

Prompt: Requested field: GI50. Item: CCCCCCCCCCCCOC(=S)NC
Completion: 25.9 µM (inactive)

Prompt: Reported GI50 for Cc1cc(C)c(/C=N/NS(=O)(=O)c2ccccc2)c(C)c1 : what is it?
Completion: 38.5 µM (inactive)

Prompt: What does the record list as GI50 for CC(=O)OC1=C(c2ccccc2)S(=O)(=O)c2ccccc21 ?
Completion: > 100 µM (inactive)

Prompt: // returns reported GI50 for input O=C1c2ccccc2C(=O)c2c(Nc3ccc4c5c(cccc35)C(=O)c3ccccc3-4)cccc21
Completion: > 100 µM (inactive)

Prompt: I have this molecule here, COc1ccc(/C=C2\CCC(C)c3c2nc(N)c(C#N)c3-c2ccc(OC)c(OC)c2)cc1OC (stereo not drawn) , and I need its recorded GI50.
Completion: 6 µM (inactive)

Prompt: For the molecule CCOC(=O)COc1c(OC)cc(C2C3=C(COC3=O)Oc3cc4c(cc32)OCO4)cc1OC (stereo not drawn) , what GI50 is on record?
Completion: 0.9 µM (active)

Prompt: Form field: reported GI50 of COc1ccc2oc(=O)c(-c3csc(C)n3)cc2c1
Completion: 18.6 µM (inactive)

Prompt: Name the reported GI50 value associated with the molecule C=CC(=O)Nc1ccc(NC(=O)C=C)c2c1C(=O)c1ccccc1C2=O
Completion: 10.8 µM (inactive)

Prompt: Fill in: GI50 of CCO[C@@]12CCC3CC4CC[C@@](OCC)(O1)C4C32 (stereo partly drawn) is ___
Completion: > 100 µM (inactive)

Prompt: Consider the molecule shown here: CCOC(=O)CNc1nc(=O)c2c(=O)oc(Cl)cc2o1 What is its recorded GI50?
Completion: 25 µM (inactive)

Prompt: Quick one: GI50 for S=C(N/N=C(/c1ccccc1)c1ccccn1)Nc1cccc(Cl)c1 ?
Completion: 0.422 µM (active)

Prompt: Quick check: GI50 of CC1(O)/C(=N/O)CC2CC1C2(C)C (stereo not drawn) ?
Completion: > 100 µM (inactive)

Prompt: Fill in: GI50 of N/C(=N/c1ccc(O)cc1)S(=O)(=O)O is ___
Completion: > 100 µM (inactive)

Prompt: Please report the recorded GI50 for CCOc1cc(/C=C/C=C/C=C/c2ccc(N(C)C)cc2)[s+]c2ccccc12 .
Completion: 33.8 µM (inactive)

Prompt: Which GI50 is listed for COc1cc(C)cc2c(-c3c(O)cc(O)c4c3C[C@H](C)N[C@H]4C)cc(-c3cc(-c4c(O)cc(O)c5c4C[C@H](C)N[C@H]5C)c4cc(C)cc(OC)c4c3O)c(O)c12 ?
Completion: 66.4 µM (inactive)

Prompt: Recorded GI50 for O=c1[nH]nc(-c2ccccc2)n1/N=C\CC/C=N\n1c(-c2ccccc2)n[nH]c1=O , please?
Completion: 47.3 µM (inactive)

Prompt: Recorded GI50 of Cc1cc(-c2ccccc2)nc(Nc2nc3ccccc3o2)n1 , please.
Completion: > 100 µM (inactive)

Prompt: Report GI50 for N#Cc1ccc(/C=N/NC(=O)CSCC(=O)N/N=C/c2ccc(C#N)cc2)cc1 please.
Completion: > 100 µM (inactive)

Prompt: GI50 lookup needed for C[Si](C)(C)CC(N)=O , thanks.
Completion: > 100 µM (inactive)
